- assayDetails: NCI Yeast Anticancer Drug Screen. Data for the bub3 strain (AID 167)
- cond: S. cerevisiae bub3 mutant strain, at 50.0 µM, hits give high values
About 79,000 compounds went through this panel and 15% of them were active in at least one assay; those are over-represented in the sample as a whole.
experimentalEndpoint: growth inhibition (%)

[[record]]
compound = "CN(C)Cc1ccccn1"
valuemeasured = -13.4

[[record]]
compound = "CCCC(OC(C)=O)c1ccc2c(c1)OCO2 (stereo not given)"
valuemeasured = 20.9

[[record]]
compound = "Cc1ccc2nc(N)nnc2c1"
valuemeasured = -17.1

[[record]]
compound = "CCC(=O)Oc1ccc2ccccc2c1"
valuemeasured = 17.4

[[record]]
compound = "C=CCN1CCCC1=O"
valuemeasured = -16.2

[[record]]
compound = "Nc1ccc(F)cc1F"
valuemeasured = 18.1

[[record]]
compound = "NCC(O)C(O)C(O)C(O)CO (stereo not given)"
valuemeasured = 18.1

[[record]]
compound = "COC(=O)c1ccc([N+](=O)[O-])c(C)c1"
valuemeasured = -25.1

[[record]]
compound = "C1Cc2onc(-c3noc4c3CCC4)c2C1"
valuemeasured = -14.2

[[record]]
compound = "O=Cc1ccc(O)c(O)c1"
valuemeasured = 4.05

[[record]]
compound = "CCOC(=O)C(COS(C)(=O)=O)(COS(C)(=O)=O)C(=O)OCC"
valuemeasured = -2.35

[[record]]
compound = "CN(CCCN(C)CCC1CCCCC1)CCC1CCCCC1"
valuemeasured = 2.15

[[record]]
compound = "Nc1ncnc(Nc2ccccc2)n1"
valuemeasured = -5.8

[[record]]
compound = "Nc1ccc2ccccc2c1-c1c(N)ccc2ccccc12"
valuemeasured = 0.75

[[record]]
compound = "O=S(=O)(OCCOS(=O)(=O)c1ccccc1)c1ccccc1"
valuemeasured = -9.1

[[record]]
compound = "NC(=S)N/N=C/c1ccc(OC(=O)COc2ccc(Cl)cc2)cn1"
valuemeasured = 4.2

[[record]]
compound = "Cc1ccc(/C=N/NC(N)=S)s1"
valuemeasured = -12.8

[[record]]
compound = "Cc1cc(Cl)cc(Cc2cc(Cl)cc(C)c2O)c1O"
valuemeasured = 22.1

[[record]]
compound = "CC1CCC(C(C)(C)[N+](C)(C)C)CC1 (stereo not given)"
valuemeasured = 47.2

[[record]]
compound = "CC(C)N1CC(=O)N2CSCC2C1=O (stereo not given)"
valuemeasured = 13.1

[[record]]
compound = "O=C(CCl)Nc1ccccc1SCc1cc(Cl)cc2c1OCOC2"
valuemeasured = 13.6

[[record]]
compound = "CC(C)C(C)(C)C(=O)C(C)(C)C(C)(C)C"
valuemeasured = 2.6

[[record]]
compound = "CC(C)N(CCCC#N)C(C)C"
valuemeasured = -17.2

[[record]]
compound = "O=S(Cc1ccccc1)/C(=C/NC(=S)Nc1cc(Cl)ccc1Cl)c1ccccc1 (stereo not given)"
valuemeasured = 5.35

[[record]]
compound = "Nc1cc(N)ncn1"
valuemeasured = -10.1

[[record]]
compound = "CCCCn1cnc2c(=O)[nH]cnc21"
valuemeasured = 8.95

[[record]]
compound = "Nc1cc(F)ccc1[N+](=O)[O-]"
valuemeasured = -8.75

[[record]]
compound = "COC1OC(C(O)C(O)CO)C(O)C(O)C1O (stereo not given)"
valuemeasured = -3.65

[[record]]
compound = "O=C(O)C1CSC(c2ccccc2)N1 (stereo not given)"
valuemeasured = -5.55

[[record]]
compound = "COc1cc(C(=O)O)c(O)c(C(C)(C)C)c1"
valuemeasured = 5.4

[[record]]
compound = "CCN(CC)CCN1CNC(=S)NC1"
valuemeasured = -1.2

[[record]]
compound = "Nc1cc2ccccc2c(O)c1O"
valuemeasured = 38

[[record]]
compound = "COc1cc(-c2ccc(NC(=O)CC(C)=O)c(OC)c2)ccc1NC(=O)CC(C)=O"
valuemeasured = 5.95

[[record]]
compound = "COc1ccc2c(ccc[n+]2C)c1"
valuemeasured = -15.7

[[record]]
compound = "C/C=C/C1OCC(CC)C(CCC)O1 (stereo not given)"
valuemeasured = -17.9

[[record]]
compound = "CC(c1ccccc1)N1C(=O)CSC1=S (stereo not given)"
valuemeasured = 53.6

[[record]]
compound = "O=C(Oc1ccccc1Cl)c1ccc(Cl)cc1Cl"
valuemeasured = 43.2

[[record]]
compound = "C1=NCCc2ccccc21"
valuemeasured = 2.05

[[record]]
compound = "C#CC(O)c1ccccc1 (stereo not given)"
valuemeasured = 0.9

[[record]]
compound = "CSCCC(NC(=O)C(Cl)Cl)C(=O)O (stereo not given)"
valuemeasured = 17


###

- assayDetails: NCI Yeast Anticancer Drug Screen. Data for the mec2-1 strain (AID 157)
- cond: S. cerevisiae mec2-1 strain, at 50.0 µM, hits give high values
About 79,000 compounds went through this panel and 15% of them were active in at least one assay; those are over-represented in the sample as a whole.
experimentalEndpoint: growth inhibition (%)

[[record]]
molecule = "CNc1ccccc1C(=O)N/N=C/C=C/c1ccccc1"
resultunits = "%"
valuemeasured = 0.35

[[record]]
molecule = "NC(CSSCC(N)C(=O)O)C(=O)O (centres undefined)"
resultunits = "%"
valuemeasured = -20

[[record]]
molecule = "O=C(NC1CCCCC1)c1ccc(Cl)cc1"
resultunits = "%"
valuemeasured = -6.7

[[record]]
molecule = "CCCCCCCCCCCCCCCCOc1ccccc1NC(=O)CC(C)=O"
resultunits = "%"
valuemeasured = -18.9


###

- assayDetails: NCI Yeast Anticancer Drug Screen. Data for the sgs1 mgt1 strain (AID 161);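 note: 0% = growth of cultures given vehicle only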
- cond: S. cerevisiae sgs1 mgt1 strain, at 50.0 µM, hits give high values
Compounds without any hit were thinned out: in the full panel of roughly 79,000, 15% have a hit.
experimentalEndpoint: growth inhibition (%)

[[record]]
compound = "CC(=O)OC(C)c1cccc(C#N)c1 (configuration not stated)"
resultunits = "%"
valuemeasured = 6.2

[[record]]
compound = "Cn1/c(=N\\N=C\\c2ccccc2OCCO)sc2ccccc21"
resultunits = "%"
valuemeasured = 18.8

[[record]]
compound = "Oc1cccnc1CN1CCCC1"
resultunits = "%"
valuemeasured = 2.3

[[record]]
compound = "CCOc1ccc(C(=O)O)cc1"
resultunits = "%"
valuemeasured = -1.65

[[record]]
compound = "O=C(OC1CCCC1)c1ccccc1Cl"
resultunits = "%"
valuemeasured = 3.75

[[record]]
compound = "CC(CC(CCC(=O)O)(c1ccccc1)c1ccccc1)N(C)C (configuration not stated)"
resultunits = "%"
valuemeasured = 9.45

[[record]]
compound = "CC(C)(CC(=O)O)CC(=O)O"
resultunits = "%"
valuemeasured = 0


###

- assayDetails: NCI Yeast Anticancer Drug Screen. Data for the bub3 strain (AID 167)
- cond: S. cerevisiae bub3 mutant strain, at 50.0 µM, hits give high values
About 79,000 compounds went through this panel and 15% of them were active in at least one assay; those are over-represented in the sample as a whole.
Entries and their measured growth inhibition follow.
experimentalEndpoint: growth inhibition (%)

[[record]]
compound = "O=C(Nc1c(Cl)cc(Cl)cc1Cl)ON=C1CCCCC1"
experimentalendpoint = "growth inhibition"
valuemeasured = 15.5

[[record]]
compound = "CC(C)(C)NCCC(O)c1cc(C(F)(F)F)nc2c(C(F)(F)F)cccc12 (stereo not drawn)"
experimentalendpoint = "growth inhibition"
valuemeasured = -11.9

[[record]]
compound = "O=C(CCCl)OCCOc1ccccc1"
experimentalendpoint = "growth inhibition"
valuemeasured = -18.5


###

- assayDetails: NCI Yeast Anticancer Drug Screen. Data for the cln2 rad14 strain (AID 165);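 note: 0% = growth equal to vehicle treated cultures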
- cond: S. cerevisiae cln2 rad14 strain, at 50.0 µM, hits give high values
This is part of a sample that, as a whole, favours compounds with a hit. Of some 79,000 tested, about 15% had one in any assay.
experimentalEndpoint: growth inhibition (%)

[[record]]
molecule = "Cc1cc(=O)n(Nc2ccccc2)c(O)c1C#N"
valuemeasured = 2.65

[[record]]
molecule = "CC(=O)OCC1OC(n2cnc3c(=S)nc(N)[nH]c32)C(OC(C)=O)C1OC(C)=O (stereo not given)"
valuemeasured = -12.4

[[record]]
molecule = "ClCC(Cl)C1CCC(Cl)C(Cl)C1 (stereo not given)"
valuemeasured = -3.9

[[record]]
molecule = "Cc1ccc(N)c(S(=O)(=O)O)c1"
valuemeasured = -53.9

[[record]]
molecule = "Cn1c(=O)c2nc3c(=O)n(C)c(=O)n(C)c3nc2n(C)c1=O"
valuemeasured = -6.9

[[record]]
molecule = "Nc1ncnc(Nc2ccccc2)n1"
valuemeasured = 15.1

[[record]]
molecule = "CCN(C(C)=O)c1ccc([N+](=O)[O-])cc1"
valuemeasured = -41.8

[[record]]
molecule = "Cc1[nH]c(=S)[nH]c(=O)c1C"
valuemeasured = -3.4

[[record]]
molecule = "C=CCN1CCCC1=O"
valuemeasured = -18.6

[[record]]
molecule = "CC(C)(C)[Si](C)(C)OCC1OC(n2cnc3c(N)ncnc32)CC1OS(C)(=O)=O (stereo not given)"
valuemeasured = -3.15

[[record]]
molecule = "Cc1ccc(/C=N/NC(N)=S)s1"
valuemeasured = -41.5

[[record]]
molecule = "COc1cccc2c1Cc1ccccc1-2"
valuemeasured = 12.8

[[record]]
molecule = "O=C1NC(=O)C(c2ccccc2)O1 (stereo not given)"
valuemeasured = 14.7

[[record]]
molecule = "CC(C)OCC(CCl)OC(=O)Nc1ccccc1 (stereo not given)"
valuemeasured = -29.1

[[record]]
molecule = "Cc1ccc(OC(=O)c2ccccc2)cc1"
valuemeasured = -6.75

[[record]]
molecule = "CC(=O)Oc1c(Cl)cccc1-c1ccccc1"
valuemeasured = 5.4

[[record]]
molecule = "COc1ccc(C2CCCCC2=O)cc1 (stereo not given)"
valuemeasured = 5.3

[[record]]
molecule = "O=c1[nH]c(=O)c2cc(Cl)cc(Cl)c2[nH]1"
valuemeasured = 14

[[record]]
molecule = "Nc1ccc(F)cc1F"
valuemeasured = -27.1

[[record]]
molecule = "O=S1(=O)c2ccccc2Oc2ccccc21"
valuemeasured = 16.6

